- Test system: NCI-H647
- PROTOCOL_TEXT: relative viability (nuclei count vs DMSO), 5 days (fraction); higher = more cells survive
- EXPERIMENTAL_CONTEXT: first compound 0.2 µM
REPORTED_ENDPOINT: relative viability
Numbers only.

Answered examples (3):
# COMPOUND, relative viability
measured = [
    ("Cc1csc(=NC2CCCCC2)n1/N=C/c1ccc(O)c(O)c1O [MIM1] + C[C@]1(O)C[C@@H](c2nc(-c3ccc4ccc(-c5ccccc5)nc4c3)c3c(N)nccn32)C1 [Linsitinib] (partner 1 µM)", 1.28),
    ("CCNC(=O)c1noc(-c2cc(C(C)C)c(O)cc2O)c1-c1ccc(CN2CCOCC2)cc1 [Luminespib] + Cc1nc(Nc2ncc(C(=O)Nc3c(C)cccc3Cl)s2)cc(N2CCN(CCO)CC2)n1 [Dasatinib] (partner 0.075 µM)", 0.0598),
    ("Cc1csc(=NC2CCCCC2)n1/N=C/c1ccc(O)c(O)c1O [MIM1] + Cc1nc(Nc2ncc(C(=O)Nc3c(C)cccc3Cl)s2)cc(N2CCN(CCO)CC2)n1 [Dasatinib] (partner 0.075 µM)", 0.232),
]

// each compound listed below needs its relative viability
1. CCNC(=O)c1noc(-c2cc(C(C)C)c(O)cc2O)c1-c1ccc(CN2CCOCC2)cc1 [Luminespib] + NC(=O)Nc1cc(-c2cccc(F)c2)sc1C(=O)N[C@H]1CCCNC1 [AZD7762] (partner 0.2 µM)
2. CCNC(=O)c1noc(-c2cc(C(C)C)c(O)cc2O)c1-c1ccc(CN2CCOCC2)cc1 [Luminespib] + CS(=O)(=O)N1CCN(Cc2cc3nc(-c4cccc5[nH]ncc45)nc(N4CCOCC4)c3s2)CC1 [Pictilisib] (partner 1 µM)

[0.0506, 0.0845]
